method.summary: refractive index (Na D-line) (dimensionless)
run.conditions: 298.15 K; 101.33 kPa; Liquid; Standard Abbe refractometry
Please go through the items and note down their refractive index.
Reply briefly: the number, and no unit.

// sample CCCCCCCC [octane] , its refractive index was 1.3955

refractive index measured on CCCCCCCCCC [decane] = 1.41

# refractive index (compound: CCCCCCCCCCCC [dodecane] ) is 1.4197

get_value(item= CCCCCC [hexane] , readout=refractive index) returns 1.3725

Short answer for CCCCCCCCCCCCCC [tetradecane] : refractive index was 1.4273

// refractive index lookup, compound = CCCCCCCCCC(=O)OC [methyl decanoate] , result: 1.4235

Per the record, CCCCCCCCCCCCCCCC [hexadecane] has refractive index of 1.4323
